Growth Inhibition(%) Colon SW-620 for assorted compounds
Test system: Colon (SW-620) cancer cell line
Assay: SRB in vitro cytotoxicity assay, Colon SW-620
Type: cell-based, human
Conditions: concentration 1 × 10^−5 (μM/mL)
value.type: Growth Inhibition(%) Colon SW-620

compound: COc1cc([C@@H]2c3cc4c(cc3[C@@H](Nc3ccc5ccc6cccc7ccc3c5c67)[C@@H]3COC(=O)[C@H]23)OCO4)cc(OC)c1OC [Compound 3c]
value.type: Growth Inhibition(%) Colon SW-620
obs.value: 29

compound: COc1cc([C@@H]2c3cc4c(cc3[C@@H](Nc3cccc5c3Cc3ccccc3-5)[C@@H]3COC(=O)[C@H]23)OCO4)cc(OC)c1O [Compound 4b]
value.type: Growth Inhibition(%) Colon SW-620
obs.value: 15

compound: COc1cc([C@@H]2c3cc4c(cc3[C@@H](Nc3cccc5cc6ccccc6cc35)[C@@H]3COC(=O)[C@H]23)OCO4)cc(OC)c1O [Compound 4a]
value.type: Growth Inhibition(%) Colon SW-620
obs.value: 22

compound: COc1cc([C@@H]2c3cc4c(cc3[C@@H](Nc3cc5c6ccccc6ccc5c5ccccc35)[C@@H]3COC(=O)[C@H]23)OCO4)cc(OC)c1OC [Compound 3d]
value.type: Growth Inhibition(%) Colon SW-620
obs.value: 14

compound: COc1cc([C@@H]2c3cc4c(cc3[C@@H](Nc3ccc(C(=O)c5ccc(N(CCCl)CCCl)cc5)cc3)[C@@H]3COC(=O)[C@H]23)OCO4)cc(OC)c1OC [Compound 3f]
value.type: Growth Inhibition(%) Colon SW-620
obs.value: 15

----------
Test system: Colon (SW-620) cancer cell line
Assay: SRB in vitro cytotoxicity assay, Colon SW-620
Assay type: cell-based, human
Conditions: concentration 1 × 10^−5 (μM/mL)
Growth Inhibition(%) Colon SW-620 for assorted molecules

compound.string: COc1cc([C@@H]2c3cc4c(cc3[C@@H](Nc3ccc5ccc6cccc7ccc3c5c67)[C@@H]3COC(=O)[C@H]23)OCO4)cc(OC)c1O
unit.abbreviation: %
Growth Inhibition(%) Colon SW-620: 7
--
compound.string: COc1cc([C@@H]2c3cc4c(cc3[C@@H](Nc3cccc5cc6ccccc6cc35)[C@@H]3COC(=O)[C@H]23)OCO4)cc(OC)c1OC
unit.abbreviation: %
Growth Inhibition(%) Colon SW-620: 25
--
compound.string: COc1cc([C@@H]2c3cc4c(cc3[C@@H](Nc3ccc(C(=O)c5ccc(F)cc5)cc3)[C@@H]3COC(=O)[C@H]23)OCO4)cc(OC)c1OC
unit.abbreviation: %
Growth Inhibition(%) Colon SW-620: 10
--
compound.string: COc1cc([C@@H]2c3cc4c(cc3[C@@H](Nc3cc5c6ccccc6ccc5c5ccccc35)[C@@H]3COC(=O)[C@H]23)OCO4)cc(OC)c1O
unit.abbreviation: %
Growth Inhibition(%) Colon SW-620: 17
--
compound.string: COc1cc([C@@H]2c3cc4c(cc3[C@@H](Nc3ccc(C(=O)c5ccc(F)cc5)cc3)[C@@H]3COC(=O)[C@H]23)OCO4)cc(OC)c1O
unit.abbreviation: %
Growth Inhibition(%) Colon SW-620: 42
--
compound.string: COc1cc([C@@H]2c3cc4c(cc3[C@@H](Nc3cccc5c3Cc3ccccc3-5)[C@@H]3COC(=O)[C@H]23)OCO4)cc(OC)c1OC
unit.abbreviation: %
Growth Inhibition(%) Colon SW-620: 11
